Data provenance: PubChem BioAssay AID1159580

- METHOD DESCRIPTION: chemical genetic growth profiling, strain panel (AID 1159580);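 further: tested at 20 µM; growth read once vehicle control cultures reached saturation at 30 °C; 1 = growth at the plate median or of vehicle wells; lower values mean less growth of the strain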
- PROTOCOL CONDITIONS: S. cerevisiae deletion strains, growth OD, locus YPL240C, strain hsp82, hits give low values
Screen size: about 5,500 compounds; about 2,000 (36%) were called active. Inconclusive results (about 18%) are left out. Some of the results follow.
ENDPOINT: normalized growth

1) CN1CCN(C2=Nc3cc(Cl)ccc3Nc3ccccc32)CC1 | 0.979
2) O=C1C=CC(=O)c2c(O)c(Cl)c(Cl)c(O)c21 | 0.0634
3) CNC(C)[C@@H]1CC[C@@H](N)[C@@H](OC2[C@@H](N)C[C@@H](N)[C@H](OC3OC[C@](C)(O)[C@H](NC)[C@H]3O)[C@H]2O)O1 (stereo partly specified) | 0.99
4) CC1(C)CC23C(=O)CCC(O)C2(C)CCC13 (stereo unspecified) | 1
5) CNC(=O)Oc1ccccc1OC(C)C | 1
6) ClC1C(Cl)C(Cl)C(Cl)C(Cl)C1Cl (stereo unspecified) | 0.978
7) CCCc1ncc(C[n+]2ccccc2C)c(N)n1 | 0.985
8) CC(=O)OC[C@@]1(O)C[C@@]23CCC4c5ccoc5CC[C@]4(C)C2CC[C@@H]1C3 (stereo partly specified) | 1.01
9) NC(=NCCCCCCN=C(N)N=C(N)Nc1ccc(Cl)cc1)N=C(N)Nc1ccc(Cl)cc1 | 0.0556
10) COc1cc(O)c2c(c1)C(=O)c1cc(C)cc(O)c1C2=O | 0.98
11) CC(=O)c1c(O)cc(O)cc1O | 0.979
